- Tested on: Mouse astrocytes
- method_summary: Cell proliferation assay (BrdU method) on mouse astrocytes
- Format: cell-based
- experimental_conditions: Mus musculus, Astrocyte, 24 h, read-out: Cell proliferation activity, proliferative activity (%)
Each entry below lists one item and its recorded activity at 100 µM value.
quantity: activity at 100 µM

> print(dat)
                            smiles.notation      reading
1  CC[C@@]1(C)Oc2cc(ccc2O)C[C@H](NC)C(=O)N[C@@H](C(C)C)C(=O)N(C)[C@@H]1C(=O)N[C@@H](CCC(=O)O)C(=O)O  110 to 130%
2  CC[C@@]1(C)Oc2cc(ccc2O)C[C@H](NC)C(=O)N[C@@H](C)C(=O)N[C@@H]1C(=O)N[C@@H](CCC(=O)O)C(=O)O  110 to 130%
3  CC[C@@]1(C)Oc2cc(ccc2O)C[C@H](NC)C(=O)NCC(=O)N[C@@H]1C(=O)N[C@@H](CC(=O)O)C(=O)O  110 to 130%
4  CC[C@@]1(C)Oc2cc(ccc2O)C[C@H](NC)C(=O)N[C@@H](CCCNC(=N)N)C(=O)N[C@@H]1C(=O)N[C@@H](CCC(=O)O)C(=O)O  110 to 130%
5  CC[C@@]1(C)Oc2cc(ccc2OC)C[C@H](NC)C(=O)N[C@@H](C(C)C)C(=O)N[C@@H]1C(=O)N[C@@H](CCC(=O)O)C(=O)O  110 to 130%
6  CC[C@@]1(C)Oc2cc(ccc2O)C[C@H](N(C)C)C(=O)N[C@@H](C(C)C)C(=O)N[C@@H]1C(=O)N[C@@H](CC(=O)O)C(=O)O  130 to 150%

---

Each entry below lists one item and its recorded activity at 200 µM value.
- System: Mouse astrocytes
- method_summary: Cell proliferation assay (BrdU method) on mouse astrocytes
- Type: cell-based
- experimental_conditions: Mus musculus, Astrocyte, 24 h, read-out: Cell proliferation activity, proliferative activity (%)
quantity: activity at 200 µM

> print(dat)
                                    compound            quantity      reading
 1  CC[C@@]1(C)Oc2cc(ccc2O)C[C@H](NC)C(=O)N[C@@H](C(C)C)C(=O)N(C)[C@@H]1C(=O)N[C@@H](CC(=O)O)C(=O)O [Compound 44]  activity at 200 µM  110 to 130%
 2  CN[C@H]1Cc2ccc(O)c(c2)OC(C)(C)[C@@H](C(=O)N[C@@H](CCC(=O)O)C(=O)O)NC(=O)[C@H](C(C)C)NC1=O [Compound 16]  activity at 200 µM  130 to 150%
 3  CC[C@@]1(C)Oc2cc(ccc2O)C[C@H](NC)C(=O)N[C@@H](C(C)C)C(=O)N[C@@H]1C(=O)N[C@H](CCC(=O)O)C(=O)O [Compound 20]  activity at 200 µM   90 to 110%
 4  CC[C@@]1(C)Oc2cccc(c2)C[C@H](N)C(=O)NCC(=O)N[C@@H]1C(=O)N[C@@H](CCC(=O)O)C(=O)O [Compound 13]  activity at 200 µM  110 to 130%
 5  CC[C@@]1(C)Oc2cc(ccc2O)C[C@H](NC)C(=O)N[C@@H](CO)C(=O)N[C@@H]1C(=O)N[C@@H](CCC(=O)O)C(=O)O [Compound 27]  activity at 200 µM   90 to 110%
 6  CC(C)[C@@H]1NC(=O)[C@@H](N)Cc2ccc(O)c(c2)OC(C)(C)[C@@H](C(=O)N[C@@H](CCC(=O)O)C(=O)O)NC1=O [Compound 19]  activity at 200 µM  110 to 130%
 7  CC[C@@]1(C)Oc2cc(ccc2O)C[C@H](NC)C(=O)N[C@@H](C(C)C)C(=O)N[C@@H]1C(=O)N[C@@H](CC(=O)O)C(=O)O [Compound 9]  activity at 200 µM       > 150%
 8  CC[C@@]1(C)Oc2cc(ccc2O)C[C@H](N)C(=O)N[C@@H](C(C)C)C(=O)N[C@@H]1C(=O)N[C@@H](CC(=O)O)C(=O)O [Compound 15]  activity at 200 µM   90 to 110%
 9  CC[C@@]1(C)Oc2cc(ccc2O)C[C@H](N)C(=O)N[C@@H](C(C)C)C(=O)N[C@@H]1C(=O)N[C@@H](CCC(=O)O)C(=O)O [Compound 6]  activity at 200 µM  110 to 130%
10  CC[C@@]1(C)Oc2cc(ccc2O)C[C@H](NC)C(=O)N[C@@H](Cc2ccccc2)C(=O)N[C@@H]1C(=O)N[C@@H](CCC(=O)O)C(=O)O [Compound 24]  activity at 200 µM  130 to 150%
11  CC[C@@]1(C)Oc2cc(ccc2O)C[C@H](NC)C(=O)N[C@@H](C(C)C)C(=O)N[C@@H]1C(=O)N(C)[C@@H](CC(=O)O)C(=O)O [Compound 47]  activity at 200 µM  130 to 150%
12  CC[C@@]1(C)Oc2cc(ccc2O)C[C@H](NC)C(=O)N(C)[C@@H](C(C)C)C(=O)N[C@@H]1C(=O)N[C@@H](CCC(=O)O)C(=O)O [Compound 42]  activity at 200 µM  130 to 150%
13  CC[C@@]1(C)Oc2cc(ccc2O)C[C@H](NC)C(=O)N[C@@H](CC(C)C)C(=O)N[C@@H]1C(=O)N[C@@H](CCC(=O)O)C(=O)O [Compound 49]  activity at 200 µM  110 to 130%
14  CC[C@@]1(C)Oc2cccc(c2)C[C@H](NC)C(=O)N[C@@H](C(C)C)C(=O)N[C@@H]1C(=O)N[C@@H](CCC(=O)O)C(=O)O [Compound 14]  activity at 200 µM  110 to 130%
15  CC[C@@]1(C)Oc2cc(ccc2O)C[C@H](NC)C(=O)N[C@@H](Cc2ccc(O)cc2)C(=O)N[C@@H]1C(=O)N[C@@H](CCC(=O)O)C(=O)O [Compound 29]  activity at 200 µM   90 to 110%
16  CC[C@@]1(C)Nc2cc(ccc2O)C[C@H](NC)C(=O)N[C@@H](C(C)C)C(=O)N[C@@H]1C(=O)N[C@@H](CCC(=O)O)C(=O)O [Compound 22]  activity at 200 µM   90 to 110%

Hey, just so you know, these numbers are from patent US20260035407A1.
